Published pIC50 for Bone morphogenetic protein receptor type-1B (Homo sapiens), assembled from different documents, is shown next.
Units for pIC50: none; it is -log10 of a concentration expressed in mol/L.

- compound: "Nc1ncc(-c2ccc([C@]34C[C@H]3CN(CCN3CCOCC3)C4)cc2)cc1C(=O)NC12CCC(O)(CC1)CC2"
  pIC50: 5.55
- compound: "CC(C)n1cc(-c2cncc(-c3ccc4c(c3)C(F)(F)C(=O)N4C)c2)ccc1=O"
  pIC50: 5.35
- compound: "C[C@@H](c1ccc(-c2cnc(N)c(C(=O)N[C@H]3CC[C@H](O)CC3)c2)cc1)N1CC2(COC2)C1"
  pIC50: 5.73
- compound: "Nc1ncc(-c2ccc([C@@]34C[C@@H]3CN(C3CCOCC3)C4)cc2)cc1C(=O)NC12CC(CO)(C1)C2"
  pIC50: 5.55
- compound: "C[C@]1(O)CC[C@H](NC(=O)c2cc(-c3ccc([C@@]45C[C@@H]4CN(C4CCC(F)(F)CC4)C5)cc3)cnc2N)CC1"
  pIC50: 5.00

pIC50 of CN1C(=O)Cc2cc(-c3cncc(-c4ccc(=O)n(CC(F)(F)F)c4)c3)ccc21 , assay on Bone morphogenetic protein receptor type-1B (Homo sapiens), is 5.15

pIC50 of COCCN1C[C@@H]2C[C@]2(c2ccc(-c3cnc(N)c(C(=O)NC45CCC(O)(CC4)CC5)c3)cc2)C1 , assay on Bone morphogenetic protein receptor type-1B (Homo sapiens), is 5.62

pIC50 of CC(C)n1cc(-c2cncc(-c3ccc4c(c3)CC(=O)N4CCO)c2)ccc1=O , assay on Bone morphogenetic protein receptor type-1B (Homo sapiens), is 5.90

pIC50 of Cc1cc(-c2cnc3cc(-c4ccc(C5COC6(CCNC6)CN5)cc4)ccn23)c2cc(F)cc(F)c2n1 (stereo not drawn) , assay on Bone morphogenetic protein receptor type-1B (Homo sapiens), is 6.37

pIC50 of Nc1ncc(-c2ccc([C@@]34C[C@@H]3CN(CC3COC3)C4)cc2)cc1C(=O)N[C@H]1CC[C@H](O)CC1 , assay on Bone morphogenetic protein receptor type-1B (Homo sapiens), is 5.06

pIC50 of Nc1ncc(-c2ccc([C@@]34C[C@@H]3CN(CCF)C4)cc2)cc1C(=O)N[C@H]1CC[C@H](O)CC1 , assay on Bone morphogenetic protein receptor type-1B (Homo sapiens), is 5.36

pIC50 of C#CCN1C[C@@H]2C[C@]2(c2ccc(-c3cnc(N)c(C(=O)N[C@H]4CC[C@H](O)CC4)c3)cc2)C1 , assay on Bone morphogenetic protein receptor type-1B (Homo sapiens), is 5.60

pIC50 of Nc1ncc(-c2ccc(C(=O)N3CCOCC3)cc2)cc1C(=O)NC1CCCCC1 , assay on Bone morphogenetic protein receptor type-1B (Homo sapiens), is 5.05

pIC50 of Nc1ncc(-c2ccc([C@]34C[C@H]3CN(C3CCOCC3)C4)cc2)cc1C(=O)NC12CC(CO)(C1)C2 , assay on Bone morphogenetic protein receptor type-1B (Homo sapiens), is 5.48

====

Published IC50 for Bone morphogenetic protein receptor type-1B (Homo sapiens, UniProt O00238), assembled from different documents, is shown next.
The reply should be a number in nM, with the unit left off.

- molecule: "Nc1ncc(-c2ccc([C@]34C[C@H]3CN(CCC(F)(F)F)C4)cc2)cc1C(=O)N[C@H]1CC[C@H](O)CC1"
  unitText: "nM"
  IC50: 2400
- molecule: "C[C@H](c1ccc(-c2cnc(N)c(C(=O)N[C@]3(C)CC[C@@H](O)CC3)c2)cc1)N1CC2(COC2)C1"
  unitText: "nM"
  IC50: 10000
- molecule: "CC(C)n1cc(-c2cncc(-c3ccc4c(c3)CC(=O)N4C)n2)ccc1=O"
  unitText: "nM"
  IC50: 2500
- molecule: "Nc1ncc(-c2ccc([C@@]34C[C@@H]3CN(CCN3CCOCC3)C4)cc2)cc1C(=O)NC12CCC(O)(CC1)CC2"
  unitText: "nM"
  IC50: 2230
- molecule: "C[C@H](c1ccc(-c2cnc(N)c(C(=O)N[C@H]3CC[C@](C)(O)CC3)c2)cc1)N1CC2(COC2)C1"
  unitText: "nM"
  IC50: 7700

// Nc1ncc(-c2ccc([C@@]34C[C@@H]3CN(CCOCC(F)(F)F)C4)cc2)cc1C(=O)N[C@H]1CC[C@H](O)CC1 : IC50 value = 6900

// C[C@H](c1ccc(-c2cnc(N)c(C(=O)NC34CC5CC(CC(O)(C5)C3)C4)c2)cc1)N1CC2(COC2)C1 : IC50 value = 10000

// Cc1cc(-c2cnc3cc(-c4ccc(C5CNCCN5)cc4)ccn23)c2cc(F)ccc2n1 (centres unmarked) : IC50 value = 188

// C[C@@H]1CCCN1Cc1ccc(-c2cnc(N)c(C(=O)N[C@H]3CC[C@](C)(O)CC3)c2)c(F)c1 : IC50 value = 10000

// CN1CCN(C(=O)c2ccc(-c3cnc(N)c(C(=O)NC4CCCCC4)c3)cc2)CC1 : IC50 value = 4800

// CC(F)(F)CN1C[C@@H]2C[C@]2(c2ccc(-c3cnc(N)c(C(=O)N[C@H]4CC[C@H](O)CC4)c3)cc2)C1 : IC50 value = 8400

// c1cnc2nccc(-c3cnc4cc(-c5ccc(C6CNCCN6)cc5)ccn34)c2c1 (centres unmarked) : IC50 value = 54.5

// C[C@H](c1ccc(-c2cnc(N)c(C(=O)N[C@H]3CC[C@H](O)CC3)c2)cc1)N1CC2(COC2)C1 : IC50 value = 1730

// CC(C)n1cc(-c2cncc(-c3ccc4c(c3)CC(=O)N4CCCO)c2)ccc1=O : IC50 value = 1500

// CN1C(=O)Cc2cc(-c3cncc(-c4ccc(=O)n(C5CCC5)c4)c3)ccc21 : IC50 value = 2900

// Nc1ncc(-c2ccc([C@]34C[C@H]3CN(C3COC3)C4)cc2)cc1C(=O)N[C@H]1CC[C@H](O)CC1 : IC50 value = 2500

// CN1CCN(C(=O)c2ccc(-c3cnc(N)c(C(=O)N[C@H]4CC[C@@H](O)CC4)c3)cc2)CC1 : IC50 value = 10000

====

Published IC50 for Bone morphogenetic protein receptor type-1B (Homo sapiens, UniProt O00238), assembled from different documents, is shown next.
The reply should be a number in µM, with the unit left off.

Past entries and their recorded results:
- molecule: "CC(C)n1cc(-c2cncc(-c3ccc4c(c3)CS(=O)(=O)N4CC3CCC3)c2)ccc1=O"
  IC50 [µM]: 1.5
- molecule: "Cc1cc(-c2cnc3cc(-c4ccc(C5COCC(C)N5)cc4)ccn23)c2cc(F)cc(F)c2n1 (stereo not shown)"
  IC50 [µM]: 0.369
- molecule: "CC(C)n1nc(-c2cncc(-c3ccc4c(c3)CC(=O)N4C)c2)ccc1=O"
  IC50 [µM]: 3.05
- molecule: "Nc1ncc(-c2cccc(C(=O)N3CCN(CCO)CC3)c2)cc1C(=O)NC1CCCCC1"
  IC50 [µM]: 20.2

// NS(=O)(=O)c1ccc(-c2cnc3cc(-c4ccc(C5CNCCN5)cc4)ccn23)c2ccccc12 (stereo not shown) : IC50 value = 0.231

// Nc1ncc(-c2ccc([C@]34C[C@H]3CN(C3CCC(F)(F)CC3)C4)cc2)cc1C(=O)NC12CCC(O)(CC1)CC2 : IC50 value = 4.5

// Nc1ncc(-c2ccc([C@]34C[C@H]3CN(CC(F)(F)F)C4)cc2)cc1C(=O)N[C@H]1CC[C@H](O)CC1 : IC50 value = 8.7
